System: Quadruplex DNA
Experiment: Stabilization of 3'-6FAM/5'-Dabcyl-labelled human telomeric 22 G-quadruplex DNA assessed as change in melting temperature at 0.75 uM by fluorescence assay
Type: nucleic-acid assay
Provide the reported ΔTm of each item.
The reply must contain the numeric value and, after it, the unit.

Req: Hello, I am looking for reported ΔTm with Quadruplex DNA for `Cl.NCCCCNCCCCNCCCN1C(=O)c2ccc3c4c(ccc(c24)C1=O)C(=O)N(CCCCCC(=O)NO)C3=O` . Could you help?
Resp: 13.3 °C

Req: Hello, I am looking for reported ΔTm with Quadruplex DNA for `Cl.NCCCNCCCNCCCN1C(=O)c2ccc3c4c(ccc(c24)C1=O)C(=O)N(CCCCCC(=O)NO)C3=O` . Could you help?
Resp: 9.9 °C

Req: Hello, I am looking for reported ΔTm with Quadruplex DNA for `Cl.NCCCNCCCCNCCCN1C(=O)c2ccc3c4c(ccc(c24)C1=O)C(=O)N(CCCCCC(=O)NO)C3=O` . Could you help?
Resp: 4.5 °C

Req: Hello, I am looking for reported ΔTm with Quadruplex DNA for `CN(C)c1ccc(Nc2c3ccc(NC(=O)CCN4CCCC4)cc3nc3cc(NC(=O)CCN4CCCC4)ccc23)cc1` . Could you help?
Resp: 11 °C

Req: Hello, I am looking for reported ΔTm with Quadruplex DNA for `O=C(CCCCCN1C(=O)c2cccc3cccc(c23)C1=O)NO` . Could you help?
Resp: 0.1 °C

Req: Hello, I am looking for reported ΔTm with Quadruplex DNA for `Cl.NCCCNCCCN1C(=O)c2ccc3c4c(ccc(c24)C1=O)C(=O)N(CCCCCC(=O)NO)C3=O` . Could you help?
Resp: 2.4 °C

Req: Hello, I am looking for reported ΔTm with Quadruplex DNA for `COc1ccccc1CNCCCN1C(=O)c2ccc3c4c(ccc(c24)C1=O)C(=O)N(CCCNCCCCNCCCN)C3=O` . Could you help?
Resp: 1.5 °C

Req: Hello, I am looking for reported ΔTm with Quadruplex DNA for `Cl.NCCCNCCNCCCN1C(=O)c2ccc3c4c(ccc(c24)C1=O)C(=O)N(CCCCCC(=O)NO)C3=O` . Could you help?
Resp: 4.4 °C
